The measurements presented in this section are drawn from patent US20090098570A1.

For each of the binders below, state its % of control.
- MEASURED TARGET: T1, His-LXRα/FLAG-RXRα heterodimer (ligand binding domains of human LXRα and human RXRα) (human, UniProt Q13133 164-447; P19793 201-462)
- T1 construct: Co-expressed in E. coli BL21(DE3) from pET15b-LXRα/FLAG-RXRα and purified together on Ni2+ resin; also called His-LXRα and FLAG-RXRα; heterodimer comprising LXRα and RXRα
- T1 sequence 1: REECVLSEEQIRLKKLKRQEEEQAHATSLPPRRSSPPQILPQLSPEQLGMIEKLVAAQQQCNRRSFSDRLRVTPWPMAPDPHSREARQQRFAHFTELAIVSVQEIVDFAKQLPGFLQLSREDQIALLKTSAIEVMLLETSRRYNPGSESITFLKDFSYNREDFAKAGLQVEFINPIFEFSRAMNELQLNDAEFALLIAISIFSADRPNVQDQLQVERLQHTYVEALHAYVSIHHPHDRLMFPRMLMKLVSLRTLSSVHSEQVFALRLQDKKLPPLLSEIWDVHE
- T1 sequence 2: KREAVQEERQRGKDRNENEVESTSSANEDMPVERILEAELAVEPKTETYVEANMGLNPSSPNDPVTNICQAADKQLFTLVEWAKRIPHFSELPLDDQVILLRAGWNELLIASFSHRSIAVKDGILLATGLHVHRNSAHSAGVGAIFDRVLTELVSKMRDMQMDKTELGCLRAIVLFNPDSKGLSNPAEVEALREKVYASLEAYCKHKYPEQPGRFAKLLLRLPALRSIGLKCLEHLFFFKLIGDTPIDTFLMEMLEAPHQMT
- EXPERIMENTAL PROTOCOL: FRET (665/620 nm), anti-His tag antibody + streptavidin, biotinylated peptide; with Compound A, relative to DMSO-only control
- Procedure: Next, 10 μl of peptide reaction solution (1.00 μl of 5 μM peptide, 1.00 μl of 10× PBS, 2.50 μl of 2 M KF, 0.10 μl of 10% NP40, 0.20 μl of streptavidin (CIS Bio International) and 5.20 μl of H₂O) were added to each well of the 384-well assay plate and incubated for 17 hours at 4° C. […] The value obtained by multiplying 1000 by the value resulting from dividing the measured value at 665 nm when applying excitation light at 337 nm by the measured value at 620 nm was determined. […]
No end group written: not given here. *: point of attachment. Biotin = O=C1N[C@H]2[C@H](CS[C@H]2CCCCC(=O)*)N1

Returns the measured % of control for the input binder. Input: Biotin-KNPTSCSRRFYQLTKLLDSVQPIAR [PNRC peptide KNPTSCSRRFYQLTKLLDSVQPIAR (aa 848-872)] 140 % of control

Query (binder): Biotin-GHGEDFSKVSQNPILTSLLQITGNG [TRAP220 peptide GHGEDFSKVSQNPILTSLLQITGNG (aa 590-614)] ; field requested: % of control 131 % of control

I have this binder here, Biotin-HSKASWAEFSILRELLAQDVLCD [PERC NRB2 peptide HSKASWAEFSILRELLAQDVLCD (aa 332-354)] , and I need its recorded % of control. 127 % of control

Any idea what its % of control is? The binder is Biotin-SPKKKENNALLRYLLDRDDPSDALSK [ACTR NRB3 peptide SPKKKENNALLRYLLDRDDPSDALSK (aa 728-753)] 167 % of control

State the recorded % of control for this entry: Biotin-CCFCGEDHPRQGSILYSLLTSSKQT (cysteine pairing not given here) [DAX1 peptide CCFCGEDHPRQGSILYSLLTSSKQT (aa 132-156)] 158 % of control

Fill in: % of control of Biotin-KQEPVSPKKKENALLRYLLDKDDTK [TIF2 NRB2 peptide KQEPVSPKKKENALLRYLLDKDDTK (aa 731-755)] is ___ 268 % of control
